EXPERIMENTAL_SYSTEM: T1, human glucose-dependent insulinotropic polypeptide receptor (human, UniProt P48546 22-466)
T1 sequence (looked up): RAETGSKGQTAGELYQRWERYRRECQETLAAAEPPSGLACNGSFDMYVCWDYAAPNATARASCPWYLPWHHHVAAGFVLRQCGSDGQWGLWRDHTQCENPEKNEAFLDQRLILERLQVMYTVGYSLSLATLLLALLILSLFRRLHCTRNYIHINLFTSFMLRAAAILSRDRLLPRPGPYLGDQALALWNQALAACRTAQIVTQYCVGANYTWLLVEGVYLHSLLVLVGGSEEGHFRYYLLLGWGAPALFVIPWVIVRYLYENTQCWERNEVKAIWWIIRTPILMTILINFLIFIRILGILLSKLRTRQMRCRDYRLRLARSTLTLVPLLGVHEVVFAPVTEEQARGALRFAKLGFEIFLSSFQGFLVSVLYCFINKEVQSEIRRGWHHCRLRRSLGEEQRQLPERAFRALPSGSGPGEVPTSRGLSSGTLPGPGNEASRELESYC
ASSAY_DETAILS: cell-based or functional assay
Where no end group is shown, it is not given here. [ ]: non-standard residue; d: D form. Aib = CC(C)(N)C(=O)O
Each entry below carries its reported hGIPR CRE Luc EC50 (pM).
Numeric only. Scale: pM

H[Aib]HGTFTSDYSIYLEKKYA[Aib]EFVQWLLEGGPSSGAPPPS-NH2 (not fully specified (residue 16); printed as H-Aib-HGTFTSDYSIYLE-K[(2S)-2-amino-6-[[(2S)-2-amino-6-[[(4S)-4-carboxy-4-(19-carboxynonadecanoylamino)butanoyl]amino]hexanoyl]amino]hexanoyl]-KYA-Aib-EFVQWLLEGGPSSGAPPPS-NH2) [Compound No. 30] | 15.6

Now examine the next entry.
hGIPR CRE Luc EC50 (pM) measured on Y[Aib]HGTFTSDYSIYLEKQAA[Aib]EFVQWLLEGGPSSGAPPPS-NH2 (not fully specified (residue 16); printed as Y-Aib-HGTFTSDYSIYLE-K[(2S)-2-amino-6-[[(2S)-2-amino-6-[[(4S)-4-carboxy-4-(19-carboxynonadecanoylamino)butanoyl]amino]hexanoyl]amino]hexanoyl]-QAA-Aib-EFVQWLLEGGPSSGAPPPS-NH2) [Compound No. 18] = 7.1

FYI, the data here is from patent US20230391845A1.
